The reported numbers originate from patent US11021486B2.

- STUDY_TARGET: activated MEK1 (Homo sapiens)
- MEASUREMENT_NOTES: MEK Lance Ultra experiment
- ASSAY_SETUP: 0.07 nM activated MEK1, 2 nM non-activated ERK, 50 μM ATP; read-out: MEK potency IC50
- Protocol: Biological Test Method 1: MEK Lance Ultra Experiment Compounds were serially diluted three-fold to 10 concentrations, two duplicates were set. Final test concentrations of the compounds ranged from 10 μM to 0.51 nM. […] The fluorescence signal data (excitation band: 320 nm; emission band: 665 nM/615 nM) was determined by an Envision microplate reader (PerkinElmer). […]
REPORTED_METRIC: log10 IC50 (log10 of the value in nM)

> print(dat)
                                   molecule                   study.target  obs.value
1  COC(=O)Nc1cccc(-c2c(C)n(C3CC3)c(=O)c3c(Nc4ccc(I)cc4F)c(C)c(=O)oc23)c1 [WX094]  activated MEK1 (Homo sapiens)       1.66
2  Cc1c(Nc2ccc(I)cc2F)c2c(=O)n(C3CC3)c(C)c(-c3cccc(N(S(C)(=O)=O)S(C)(=O)=O)c3)c2oc1=O [WX067]  activated MEK1 (Homo sapiens)       2.30
3  CC(=O)NCc1cccc(-c2c(C)n(C3CC3)c(=O)c3c(Nc4ccc(I)cc4F)c(C)c(=O)oc23)c1 [WX069]  activated MEK1 (Homo sapiens)       1.62
4  CCc1c(Nc2ccc(I)cc2F)c2c(=O)n(C3CC3)c(C)c(-c3cccc(CS(C)(=O)=O)c3C)c2oc1=O [WX110]  activated MEK1 (Homo sapiens)       1.97
5  Cc1c(Nc2ccc(I)cc2F)c2c(=O)n(C3CC3)c(C)c(-c3cccc(NS(C)(=O)=O)c3Cl)c2oc1=O (single isomer, unassigned) [WX117]  activated MEK1 (Homo sapiens)       2.63
6  Cc1c(Nc2ccc(I)cc2F)c2c(=O)n(C3CC3)c(C)cc2oc1=O [WX035]  activated MEK1 (Homo sapiens)       2.05
7  Cc1c(Nc2ccc(I)cc2F)c2c(=O)n(C3CC3)c(C)c(-c3cccc(C[S+](C)[O-])c3)c2oc1=O (single isomer, unassigned) [WX084]  activated MEK1 (Homo sapiens)       2.25

====

- STUDY_TARGET: activated MEK1 (Homo sapiens, UniProt Q02750)
- Construct: purchased Millipore 14-429
- Sequence (Q02750 whole entry): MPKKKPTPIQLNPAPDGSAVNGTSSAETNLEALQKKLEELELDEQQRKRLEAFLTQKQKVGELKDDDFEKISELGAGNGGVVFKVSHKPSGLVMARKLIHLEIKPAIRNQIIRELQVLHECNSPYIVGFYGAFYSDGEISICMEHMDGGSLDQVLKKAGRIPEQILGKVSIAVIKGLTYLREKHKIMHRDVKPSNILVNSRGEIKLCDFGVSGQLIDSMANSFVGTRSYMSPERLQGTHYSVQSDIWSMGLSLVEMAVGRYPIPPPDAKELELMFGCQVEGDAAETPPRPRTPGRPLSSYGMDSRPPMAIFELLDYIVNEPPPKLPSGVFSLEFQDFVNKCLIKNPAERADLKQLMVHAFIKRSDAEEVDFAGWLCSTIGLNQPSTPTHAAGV
- MEASUREMENT_NOTES: MEK Lance Ultra experiment
- Assay type: biochemical
- ASSAY_SETUP: 0.07 nM activated MEK1, 2 nM non-activated ERK, 50 μM ATP; read-out: MEK potency IC50
REPORTED_METRIC: IC50

> print(dat)
                                    molecule  obs.value
 1  CC(=O)Nc1cccc(-c2c(C)n(C3CCOCC3)c(=O)c3c(Nc4ccc(I)cc4F)c(C)c(=O)oc23)c1    32.4 nM
 2  Cc1c(CS(C)(=O)=O)cccc1-c1c(C)n(C2CC2)c(=O)c2c(Nc3ccc(I)cc3F)c(C)c(=O)oc12    29.9 nM
 3  CC(=O)Nc1cccc(Cc2c(C)n(C3CC3)c(=O)c3c(Nc4ccc(I)cc4F)c(C)c(=O)oc23)c1    12.3 nM
 4  Cc1c(Nc2ccc(I)cc2F)c2c(=O)n(C3CC3)c(C)c(-c3cccc(CNS(C)(=O)=O)c3)c2oc1=O    45.4 nM
 5  CC(=O)Nc1cccc(-c2c(C)n(C)c(=O)c3c(Nc4ccc(I)cc4F)c(C)c(=O)oc23)c1     581 nM
 6  Cc1c(NS(C)(=O)=O)cccc1-c1c(C)n(C2CC2)c(=O)c2c(Nc3ccc(I)cc3F)c(C)c(=O)oc12 [WX086]    29.6 nM
 7  CNCCn1c(C)c(-c2cccc(NC(C)=O)c2)c2oc(=O)c(C)c(Nc3ccc(I)cc3F)c2c1=O    81.5 nM
 8  CC(=O)Nc1cccc(-c2c(C)n(C3CC3)c(=O)c3c(Nc4ccc(I)cc4F)c(C)c(=O)oc23)c1    27.8 nM
 9  COCCCn1c(C)c(-c2cccc(NC(C)=O)c2)c2oc(=O)c(C)c(Nc3ccc(I)cc3F)c2c1=O      68 nM
10  Cc1c(Nc2ccc(I)cc2F)c2c(=O)n(C3CC3)c(C)c(-c3cccc(CNS(N)(=O)=O)c3)c2oc1=O     178 nM
11  Cc1c(Nc2ccc(I)cc2F)c2c(=O)n(C3CC3)c(C)c(-c3cccc(NS(C)(=O)=O)c3)c2oc1=O    77.3 nM
12  Cc1c(Nc2ccc(I)cc2F)c2c(=O)n(C3CC3)c(C)c(-c3cccc(NCCO)c3)c2oc1=O     110 nM
13  Cc1c(Nc2ccc(I)cc2F)c2c(=O)n(C3CC3)c(C)c(-c3cccc(NC(=O)N4CCOCC4)c3)c2oc1=O     118 nM
14  Cc1c(Nc2ccc(I)cc2F)c2c(=O)n(C3CC3)c(C)c(-c3cccc(CS(=O)(=O)CCO)c3)c2oc1=O     114 nM
15  CC(=O)Nc1cccc(-c2c(C)n(C3CC3)c(=O)c3c(Nc4ccc(I)cc4F)c(C)c(=O)oc23)c1C    8.73 nM
16  Cc1c(Nc2ccc(I)cc2F)c2c(=O)n(C3CC3)c(C)c(-c3cccc(NS(=O)(=O)C4CC4)c3)c2oc1=O    61.1 nM
17  CC(=O)Nc1cccc(-c2c(C)n(CCN(C)C(C)=O)c(=O)c3c(Nc4ccc(I)cc4F)c(C)c(=O)oc23)c1    54.1 nM
18  Cc1c(Nc2ccc(I)cc2F)c2c(=O)n(C3CC3)c(C)c(-c3ccnc(N)c3)c2oc1=O    35.3 nM
19  Cc1c(CS(C)(=O)=O)cccc1-c1c(C)n(C)c(=O)c2c(Nc3ccc(I)cc3F)c(C)c(=O)oc12     119 nM
20  Cc1c(NS(C)(=O)=O)cccc1-c1c(C)n(C2CC2)c(=O)c2c(Nc3ccc(I)cc3F)c(C)c(=O)oc12 (single isomer, unassigned) [WX113]    5.61 nM
21  Cc1c(Nc2ccc(I)cc2F)c2c(=O)n(C3CC3)c(C)c(Cc3cccc(N)c3)c2oc1=O    17.4 nM
22  CC(=O)Nc1ccc(C)c(-c2c(C)n(C3CC3)c(=O)c3c(Nc4ccc(I)cc4F)c(C)c(=O)oc23)c1    44.3 nM
23  Cc1c(Nc2ccc(I)cc2F)c2c(=O)n(C3CC3)c(C)c(-c3ccnc(NS(C)(=O)=O)c3)c2oc1=O     282 nM
24  Cc1c(Nc2ccc(I)cc2F)c2c(=O)n(C3CC3)c(C)c(-c3cccc(CS(C)(=O)=O)c3)c2oc1=O      66 nM
25  Cc1c(Nc2ccc(I)cc2F)c2c(=O)n(C3CC3)c(C)c(-c3cccc(C[S+](C)[O-])c3)c2oc1=O (single isomer, unassigned) [WX083]     146 nM
26  Cc1c(CS(=O)(=O)C2CC2)cccc1-c1c(C)n(C2CC2)c(=O)c2c(Nc3ccc(I)cc3F)c(C)c(=O)oc12    29.6 nM
27  Cc1c(Nc2ccc(I)cc2F)c2c(=O)n(C3CC3)c(C)c(-c3cccc(NC(=O)C4COC4)c3)c2oc1=O    36.2 nM
28  Cc1c(Nc2ccc(I)cc2F)c2c(=O)n(C3CC3)c(C)c(-c3cccc(NC(N)=O)c3)c2oc1=O    48.9 nM
29  CC(=O)Nc1ccc(F)c(-c2c(C)n(C3CC3)c(=O)c3c(Nc4ccc(I)cc4F)c(C)c(=O)oc23)c1     581 nM

====

- MEASUREMENT_NOTES: Pharmacokinetics study of the compounds in C57BL/6 mice
- Format: in vivo
- ASSAY_SETUP: male, mouse, single intravenous and oral dose, plasma, read-out: Half life T1/2 (converted)
REPORTED_METRIC: half-life (h)

> print(dat)
                                   compound  obs.value
1  CC(=O)Nc1cccc(-c2c(C)n(C3CC3)c(=O)c3c(Nc4ccc(I)cc4F)c(C)c(=O)oc23)c1       5.41
2  Cc1c(Nc2ccc(I)cc2F)c2c(=O)n(C3CC3)c(C)c(-c3cccc(NS(C)(=O)=O)c3)c2oc1=O       7.62
3  Cc1c(NS(C)(=O)=O)cccc1-c1c(C)n(C2CC2)c(=O)c2c(Nc3ccc(I)cc3F)c(C)c(=O)oc12 (single isomer, unassigned) [WX113]       4.64
4  Cc1c(Nc2ccc(I)cc2F)c2c(=O)n(C3CC3)c(C)c(-c3cccc(CS(C)(=O)=O)c3)c2oc1=O       5.28
5  Cc1c(NS(C)(=O)=O)cccc1-c1c(C)n(C2CC2)c(=O)c2c(Nc3ccc(I)cc3F)c(C)c(=O)oc12 [WX086]          7
